These measurements were taken from patent US20200253996A1.

TARGET SYSTEM: TCTP (Homo sapiens, UniProt P13693)
Sequence (P13693 whole entry): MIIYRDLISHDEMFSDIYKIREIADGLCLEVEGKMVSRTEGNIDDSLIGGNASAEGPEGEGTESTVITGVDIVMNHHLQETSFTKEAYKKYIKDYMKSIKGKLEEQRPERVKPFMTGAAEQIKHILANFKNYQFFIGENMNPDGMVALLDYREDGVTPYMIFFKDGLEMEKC
METHOD: Interaction with TCTP by surface plasmon resonance (SPR), Biacore T200
Type: binding
PROTOCOL CONDITIONS: TCTP bonded to chip, Biacore T200
METRIC: pKd
Entry type: numeric. Quantity: pKd, the -log10 of concentration in molar units.

Query block: What reported pKd corresponds to CC(=O)NC1CCC(c2cc(SC3OC(COC(C)=O)C(OC(C)=O)C(OC(C)=O)C3OC(C)=O)c(C(=O)Nc3cccc4cccnc34)c(S[C@@H]3OC(COC(C)=O)[C@@H](OC(C)=O)C(OC(C)=O)C3OC(C)=O)c2)c2ccccc21 (stereo in doubt) [AC249-cis] on TCTP (Homo sapiens, UniProt P13693)?
Result block: 5.10

Query block: What reported pKd corresponds to c1ccc2c(c1)SCCC2c1ccc2ccccc2c1 (stereo not shown) on TCTP (Homo sapiens, UniProt P13693)?
Result block: 4.52

Query block: What reported pKd corresponds to COc1ccc2c(c1)CCCC2c1ccc(Cl)c(Cl)c1 (stereo not shown) on TCTP (Homo sapiens, UniProt P13693)?
Result block: 3.82

Query block: What reported pKd corresponds to CC(=O)N[C@@H]1CC[C@H](c2ccc(C(=O)O)cc2)c2ccccc21 (relative stereo) [VM055-cis] on TCTP (Homo sapiens, UniProt P13693)?
Result block: 3.75

Query block: What reported pKd corresponds to Clc1ccc(C2CCCc3ccccc32)cc1Cl (stereo not shown) on TCTP (Homo sapiens, UniProt P13693)?
Result block: 4.85

Query block: What reported pKd corresponds to CC(=O)N[C@@H]1CC[C@H](c2ccc(C(=O)OC(C)C)cc2)c2ccccc21 (relative stereo) on TCTP (Homo sapiens, UniProt P13693)?
Result block: 4.55
